# assay system: Hepatocyte growth factor receptor (Homo sapiens) (UniProt P08581)
# Sequence (P08581 whole entry): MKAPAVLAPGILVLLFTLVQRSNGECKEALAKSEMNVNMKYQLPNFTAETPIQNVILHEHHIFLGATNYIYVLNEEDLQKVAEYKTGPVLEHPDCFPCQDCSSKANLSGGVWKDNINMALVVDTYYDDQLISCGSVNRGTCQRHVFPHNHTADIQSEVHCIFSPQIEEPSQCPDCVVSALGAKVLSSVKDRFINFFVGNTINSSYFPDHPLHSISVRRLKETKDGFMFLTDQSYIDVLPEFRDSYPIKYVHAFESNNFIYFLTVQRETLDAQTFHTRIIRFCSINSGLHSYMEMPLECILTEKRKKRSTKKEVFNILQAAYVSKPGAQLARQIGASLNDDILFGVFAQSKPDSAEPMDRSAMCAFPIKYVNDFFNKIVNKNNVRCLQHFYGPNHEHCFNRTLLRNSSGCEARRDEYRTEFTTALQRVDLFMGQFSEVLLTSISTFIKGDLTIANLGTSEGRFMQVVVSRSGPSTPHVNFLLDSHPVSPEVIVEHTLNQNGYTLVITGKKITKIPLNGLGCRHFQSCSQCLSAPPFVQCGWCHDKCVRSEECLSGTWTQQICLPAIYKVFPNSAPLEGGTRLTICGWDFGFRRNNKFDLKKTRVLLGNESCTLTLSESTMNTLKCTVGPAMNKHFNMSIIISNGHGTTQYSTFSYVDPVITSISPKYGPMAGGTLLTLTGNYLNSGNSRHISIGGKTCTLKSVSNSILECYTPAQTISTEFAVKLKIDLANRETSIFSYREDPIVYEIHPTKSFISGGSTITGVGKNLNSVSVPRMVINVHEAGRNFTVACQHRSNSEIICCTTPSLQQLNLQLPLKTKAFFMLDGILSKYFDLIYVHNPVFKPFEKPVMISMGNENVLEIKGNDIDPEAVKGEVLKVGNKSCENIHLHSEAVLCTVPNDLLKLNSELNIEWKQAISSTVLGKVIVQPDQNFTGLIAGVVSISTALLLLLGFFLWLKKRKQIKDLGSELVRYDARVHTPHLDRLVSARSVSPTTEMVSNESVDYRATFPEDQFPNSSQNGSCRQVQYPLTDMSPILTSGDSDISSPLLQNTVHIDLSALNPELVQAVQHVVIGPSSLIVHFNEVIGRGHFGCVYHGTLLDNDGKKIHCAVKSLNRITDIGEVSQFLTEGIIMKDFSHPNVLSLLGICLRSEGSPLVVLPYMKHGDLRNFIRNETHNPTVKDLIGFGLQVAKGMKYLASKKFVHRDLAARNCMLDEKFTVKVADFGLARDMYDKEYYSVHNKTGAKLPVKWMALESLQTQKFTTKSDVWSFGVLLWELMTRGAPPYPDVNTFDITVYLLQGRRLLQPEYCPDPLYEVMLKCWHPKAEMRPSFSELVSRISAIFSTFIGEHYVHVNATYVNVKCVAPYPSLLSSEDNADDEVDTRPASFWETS
# measurement protocol: Inhibition of cMet (unknown origin) at 50 nM by Z'LYTE screening method relative to control
Please respond with reported inhibition for every item in the list.
Quick note: give the figure in %, leave out the unit.

Measured inhibition of CCN(CC)CCCC(C)Nc1nc(N2Cc3ccccc3C2=O)nc2[nH]cnc12 (stereo unspecified) : 2

O=c1c2ccccc2[se]n1-c1nc(Nc2ccccc2)c2nc[nH]c2n1 has a reported inhibition of 0

inhibition measured on CCCNc1nc(-n2[se]c3ccccc3c2=O)nc2[nH]cnc12 = 1

inhibition reported for this compound O=c1c2ccccc2[se]n1-c1nc(N[C@H]2CCOC2)c2nc[nH]c2n1 : 0

Lab note: O=C1c2ccccc2CN1c1nc(NC2CCCC2)c2nc[nH]c2n1 gave inhibition of 0

So, O=C1c2ccccc2CN1c1nc(NC2CCCCC2)c2nc[nH]c2n1 ? Its inhibition was 0

// sample CCN(CC)CCCC(C)Nc1nc(-n2[se]c3ccccc3c2=O)nc2[nH]cnc12 (stereo unspecified) , its inhibition was 14

Record O=c1c2ccccc2[se]n1-c1nc(N[C@@H]2C[C@H]3CC[C@@H]2C3)c2nc[nH]c2n1 . Reported inhibition: 1

Recorded inhibition (compound C[C@@H]1[C@H]2C[C@@H](C[C@H]1Nc1nc(-n3[se]c4ccccc4c3=O)nc3[nH]cnc13)C2(C)C ): 1

inhibition reading for O=C1c2ccccc2CN1c1nc(N[C@H]2CC[Se]C2)c2nc[nH]c2n1 : 0

inhibition recorded for this compound, O=c1c2ccccc2[se]n1-c1nc(N[C@H]2CC[Se]C2)c2nc[nH]c2n1 , is 0
